The measured values listed here are drawn from ChEMBL document CHEMBL1127374.

experiment: Compound was tested in vitro against extracellular DNA hepatitis B virus of human liver cells
Assay type: functional
metric_name: EC90 (µM)
Give the value, in units of µM, as a plain number.

Check out these entries, answers already filled in.
> print(dat)
                                   molecule  endpoint.unit  readout.number
1  CO[C@H]1N(C2CC(F)C(CO)O2)C(=O)NC(=O)[C@]1(C)Br (some centres undefined)             µM              36
2  CO[C@@H]1N(C2CC(F)C(CO)O2)C(=O)NC(=O)[C@@]1(C)Br (some centres undefined)             µM              67
3  CC1(Br)C(=O)NC(=O)N([C@H]2C[C@H](F)[C@@H](CO)O2)C1N=[N+]=[N-] (mixture of isomers)             µM              42

Exercise: Data request, read-out EC90, for Nc1ccn([C@H]2CC[C@@H](CO)O2)c(=O)n1
Key: 8.1
